Measured Activity of individual entries
target: UniProt A5A4K8; test: Agonist activity at motilin receptor in rabbit smooth muscle assessed as tachyphylaxis at EC90 concentration after 4th dose; format: functional
Sequence (A5A4K8 as listed by the source): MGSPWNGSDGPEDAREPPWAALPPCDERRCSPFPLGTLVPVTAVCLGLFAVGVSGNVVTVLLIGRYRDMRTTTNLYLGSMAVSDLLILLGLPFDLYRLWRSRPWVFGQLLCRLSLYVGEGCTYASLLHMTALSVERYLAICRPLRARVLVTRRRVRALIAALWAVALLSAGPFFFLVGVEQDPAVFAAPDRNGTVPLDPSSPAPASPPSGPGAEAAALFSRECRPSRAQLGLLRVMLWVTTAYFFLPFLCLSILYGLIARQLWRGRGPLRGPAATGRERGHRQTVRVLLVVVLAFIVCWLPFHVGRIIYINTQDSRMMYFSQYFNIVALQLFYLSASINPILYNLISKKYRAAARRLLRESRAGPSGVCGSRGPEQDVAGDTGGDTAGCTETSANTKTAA
Write it as a number; the unit % goes unstated.

Use the examples below as a reference point.
COMPOUND: CC[C@H]1OC(=O)[C@H](C)[C@@H](O[C@H]2C[C@@](C)(OC)[C@@H](O)[C@H](C)O2)[C@H](C)[C@@H](O[C@@H]2O[C@H](C)C[C@H](N(C)C)[C@H]2O)[C@](C)(O)C[C@@H](C)C(=O)[C@H](C)[C@@H](O)[C@]1(C)O
READOUT_UNITS: %
RESULT: 97
//
COMPOUND: CC[C@H]1OC(=O)[C@H](C)[C@@H](O[C@H]2C[C@@](C)(OC)[C@@H](O)[C@H](C)O2)[C@H](C)[C@@H](O[C@@H]2O[C@H](C)C[C@H](N(C)C(C)C)[C@H]2O)[C@](C)(O)C[C@@H](C)[C@H](OCC(=O)Nc2ccncn2)[C@H](C)[C@@H](O)[C@]1(C)O
READOUT_UNITS: %
RESULT: 63

Query: Return value of Activity for input CC[C@H]1OC(=O)[C@H](C)[C@@H](O[C@H]2C[C@@](C)(OC)[C@@H](O)[C@H](C)O2)[C@H](C)[C@@H](O[C@@H]2O[C@H](C)C[C@H](N(C)C(C)C)[C@H]2O)[C@](C)(O)C[C@@H](C)[C@H](O)[C@H](C)[C@@H](O)[C@]1(C)O , no commentary.
Response: 85

Sourced from ChEMBL document CHEMBL1154611
